target: PERK kinase (Homo sapiens (Human), UniProt Q9NZJ5)
Sequence (Q9NZJ5 other isoform, or with tags, fused parts or gaps): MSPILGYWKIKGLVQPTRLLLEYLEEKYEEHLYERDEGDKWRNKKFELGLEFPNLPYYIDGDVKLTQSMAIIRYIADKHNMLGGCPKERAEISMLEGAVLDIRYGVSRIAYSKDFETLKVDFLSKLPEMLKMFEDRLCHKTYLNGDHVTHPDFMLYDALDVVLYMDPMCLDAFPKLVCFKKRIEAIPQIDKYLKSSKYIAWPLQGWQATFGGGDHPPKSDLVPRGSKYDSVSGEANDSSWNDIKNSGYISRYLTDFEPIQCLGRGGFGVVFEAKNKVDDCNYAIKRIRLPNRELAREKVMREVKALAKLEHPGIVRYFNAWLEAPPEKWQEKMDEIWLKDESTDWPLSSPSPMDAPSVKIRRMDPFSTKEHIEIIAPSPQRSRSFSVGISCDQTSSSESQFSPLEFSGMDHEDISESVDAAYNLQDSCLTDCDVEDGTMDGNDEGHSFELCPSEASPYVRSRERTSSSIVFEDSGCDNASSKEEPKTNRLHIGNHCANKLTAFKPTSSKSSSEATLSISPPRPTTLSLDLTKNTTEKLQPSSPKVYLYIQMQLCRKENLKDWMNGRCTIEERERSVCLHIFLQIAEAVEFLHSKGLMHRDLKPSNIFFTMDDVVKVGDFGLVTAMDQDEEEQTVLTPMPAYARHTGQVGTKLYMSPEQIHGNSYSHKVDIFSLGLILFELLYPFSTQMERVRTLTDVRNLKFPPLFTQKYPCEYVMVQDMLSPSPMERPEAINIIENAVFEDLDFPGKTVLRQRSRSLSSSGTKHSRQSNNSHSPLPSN
pIC50: −log10 of the molar value.
observed-property: pIC50

Using the record for `CNc1ncc2cc(-c3cccc(NS(=O)(=O)c4cc(Cl)cnc4OC)c3C)c(C)nc2n1` , report its pIC50.
6.30 to 7.00

---

As a worked illustration, we turn to IC50 data collected for PERK kinase (Homo sapiens (Human), UniProt Q9NZJ5).

molecule: CNc1ncc2cc(-c3cccc(NS(=O)(=O)c4cc(Cl)cnc4OC4COC4)c3F)c(NC)nc2n1 [Example 125]
test-system: PERK kinase (Homo sapiens (Human), UniProt Q9NZJ5)
IC50: 500 to 1000 nM
--
molecule: CNc1nc2nc(N)ncc2cc1-c1cc(Cl)cc(NS(=O)(=O)c2cc(Cl)cnc2OC)c1 [Example 104]
test-system: PERK kinase (Homo sapiens (Human), UniProt Q9NZJ5)
IC50: 1000 to 10000 nM
--
molecule: CNc1ncc2cc(-c3cc(NS(=O)(=O)c4cc(Cl)cnc4OC)cc(F)c3F)ccc2n1 [Example 55]
test-system: PERK kinase (Homo sapiens (Human), UniProt Q9NZJ5)
IC50: 100 to 500 nM
--
molecule: CNc1ncc2cc(-c3cccc(NS(=O)(=O)c4cc(Cl)cc(CO)c4OC)c3F)c(NC)nc2n1 [Example 179]
test-system: PERK kinase (Homo sapiens (Human), UniProt Q9NZJ5)
IC50: ≤ 100 nM
--
molecule: CNc1ncc2cc(-c3cc(F)cc(NS(=O)(=O)c4cc(Cl)cnc4OC)c3)c(NC)nc2n1 [Example 11]
test-system: PERK kinase (Homo sapiens (Human), UniProt Q9NZJ5)
IC50: 100 to 500 nM
--
molecule: CNc1ncc2cc(-c3cc(NS(=O)(=O)c4cccnc4)c(F)cc3C)c(C)nc2n1 [Example 1]
test-system: PERK kinase (Homo sapiens (Human), UniProt Q9NZJ5)
IC50: 1000 to 10000 nM
--
molecule: CNc1nc2nc(Nc3cnn(C)c3)ncc2cc1-c1cccc(NS(=O)(=O)c2cc(Cl)cnc2OC)c1F [Example 110]
test-system: PERK kinase (Homo sapiens (Human), UniProt Q9NZJ5)
IC50: ≤ 100 nM

Using the record for CNc1ncc2cc(-c3cccc(NS(=O)(=O)c4cc(Cl)cnc4OC)c3F)ccc2n1 [Example 36] , report its IC50.
≤ 100 nM

---

pIC50: recorded values
target: PERK kinase (Homo sapiens (Human), UniProt Q9NZJ5)
pIC50: −log10 of the molar value.

smiles-code: CNc1cc2nc(C)c(-c3cc(NS(=O)(=O)c4cc(Cl)cnc4OC)ccc3C)cc2cn1
observed-property: pIC50
readout-value: ≥ 7.00

Now let's try a different one.
Using the record for `CNc1ncc2cc(-c3cc(NS(=O)(=O)c4cc(Cl)cnc4OC)ccc3Cl)c(C)nc2n1` , report its pIC50.
≥ 7.00

---

IC50: recorded values
molecular target: GCN2 kinase (Homo sapiens (Human))
Sequence (Q9P2K8 whole entry): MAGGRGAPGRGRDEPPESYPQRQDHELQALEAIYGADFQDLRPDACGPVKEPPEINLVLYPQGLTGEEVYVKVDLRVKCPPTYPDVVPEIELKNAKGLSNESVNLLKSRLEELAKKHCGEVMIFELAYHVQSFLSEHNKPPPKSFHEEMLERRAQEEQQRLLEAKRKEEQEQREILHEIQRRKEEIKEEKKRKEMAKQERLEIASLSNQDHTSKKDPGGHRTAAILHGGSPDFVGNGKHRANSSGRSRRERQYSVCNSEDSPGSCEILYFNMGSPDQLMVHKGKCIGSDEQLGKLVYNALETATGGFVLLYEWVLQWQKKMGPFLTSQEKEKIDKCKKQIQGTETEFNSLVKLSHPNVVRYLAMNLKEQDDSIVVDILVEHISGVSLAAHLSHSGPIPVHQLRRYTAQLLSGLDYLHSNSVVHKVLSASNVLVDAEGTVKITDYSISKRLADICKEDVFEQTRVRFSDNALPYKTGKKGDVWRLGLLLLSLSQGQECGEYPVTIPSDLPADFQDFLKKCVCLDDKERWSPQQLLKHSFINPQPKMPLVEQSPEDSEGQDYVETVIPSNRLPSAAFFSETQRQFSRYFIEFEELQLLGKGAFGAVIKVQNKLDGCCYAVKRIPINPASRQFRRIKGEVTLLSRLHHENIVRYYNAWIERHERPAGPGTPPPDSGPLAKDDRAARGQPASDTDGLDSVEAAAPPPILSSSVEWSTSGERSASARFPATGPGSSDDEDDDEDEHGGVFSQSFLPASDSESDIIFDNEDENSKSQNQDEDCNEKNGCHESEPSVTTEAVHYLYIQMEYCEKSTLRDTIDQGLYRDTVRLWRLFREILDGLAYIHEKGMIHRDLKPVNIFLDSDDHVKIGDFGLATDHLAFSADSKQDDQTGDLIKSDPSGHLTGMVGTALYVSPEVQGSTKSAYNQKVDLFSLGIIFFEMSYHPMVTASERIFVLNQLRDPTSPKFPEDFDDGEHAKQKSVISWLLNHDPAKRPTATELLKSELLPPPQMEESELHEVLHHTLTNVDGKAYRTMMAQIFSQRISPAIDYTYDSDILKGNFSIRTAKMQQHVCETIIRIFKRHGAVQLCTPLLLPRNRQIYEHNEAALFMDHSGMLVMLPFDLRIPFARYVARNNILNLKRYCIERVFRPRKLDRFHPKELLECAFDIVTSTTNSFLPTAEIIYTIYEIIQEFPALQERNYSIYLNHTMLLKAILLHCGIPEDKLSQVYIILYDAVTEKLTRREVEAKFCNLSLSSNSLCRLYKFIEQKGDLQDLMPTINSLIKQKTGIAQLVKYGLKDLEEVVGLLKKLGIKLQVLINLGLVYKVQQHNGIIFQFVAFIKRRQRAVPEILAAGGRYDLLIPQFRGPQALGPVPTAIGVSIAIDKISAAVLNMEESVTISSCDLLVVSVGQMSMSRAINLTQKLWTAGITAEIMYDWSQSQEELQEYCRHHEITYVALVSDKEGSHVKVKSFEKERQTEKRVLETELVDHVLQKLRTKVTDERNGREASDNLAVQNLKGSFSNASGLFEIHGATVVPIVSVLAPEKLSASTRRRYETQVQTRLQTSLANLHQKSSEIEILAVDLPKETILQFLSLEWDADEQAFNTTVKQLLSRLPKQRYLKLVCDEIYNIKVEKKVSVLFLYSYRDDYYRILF

Recorded IC50, per entry:
compound: CNc1ncc2cc(-c3cccc(NS(=O)(=O)c4cc(Br)cnc4OC)c3F)c(NC)nc2n1 [Example 169]
readout-value: ≤ 0.1 µM
//
compound: CNc1ncc2cc(-c3cccc(NS(=O)(=O)c4cc(Cl)cc(CO)c4OC)c3F)c(NC)nc2n1 [Example 179]
readout-value: ≤ 0.1 µM
//
compound: CNc1ncc2cc(-c3cccc(NS(=O)(=O)c4cc(Cl)cnc4OC)c3F)c(NC3COC3)nc2n1 [Example 98]
readout-value: 0.1 to 0.5 µM
//
compound: CNc1ncc2cc(-c3cccc(NS(=O)(=O)c4cc(Cl)cnc4OC4COC4)c3F)c(NC)nc2n1 [Example 125]
readout-value: 0.1 to 0.5 µM
//
compound: CNc1ncc2cc(-c3cccc(NS(=O)(=O)c4cccc(C(=O)OC)c4Cl)c3F)c(NC)nc2n1 [Example 150]
readout-value: 0.5 to 1 µM

Using the record for CNc1ncc2cc(-c3cccc(NS(=O)(=O)c4cc(Cl)c[nH]c4=O)c3F)c(NC)nc2n1 [Example 160] , report its IC50.
0.5 to 1 µM

Using the record for CNc1nc2nc(NC(C)(C)C)ncc2cc1-c1cccc(NS(=O)(=O)c2cc(Cl)cnc2OC)c1F [Example 124] , report its IC50.
0.1 to 0.5 µM

---

As a worked illustration, we turn to IC50 data collected for UniProtKB Q9P2K8.

compound: CNc1ncc2cc(-c3cccc(NS(=O)(=O)c4cc(Cl)cc(OC)c4Cl)c3F)ccc2n1 [Example 83]
readout-value: 100 to 500 nM
--
compound: CNc1ncc2cc(-c3cc(NS(=O)(=O)c4cc(Cl)cc(Cl)c4)c(F)cc3C)c(C)nc2n1 [Example 75]
readout-value: 500 to 1000 nM
--
compound: CNc1ncc2cc(-c3cc(F)cc(NS(=O)(=O)c4cc(Cl)cnc4OC)c3)c(OC)nc2n1 [Example 103]
readout-value: 100 to 500 nM
--
compound: COc1ncc(Cl)cc1S(=O)(=O)Nc1cccc(-c2cc3cnc(N)cc3nc2C)c1Cl [Example 121]
readout-value: ≤ 100 nM
--
compound: CNc1ncc2cc(-c3cc(NS(=O)(=O)c4cc(Cl)cnc4OC)ccc3OC)c(C)nc2n1 [Example 82]
readout-value: 1000 to 10000 nM

Now let's try a different one.
Under UniProtKB Q9P2K8: IC50 value of CNc1nc2nc(NCC3COC3)ncc2cc1-c1cccc(NS(=O)(=O)c2cc(Cl)cnc2OC)c1F [Example 149] ?
500 to 1000 nM

---

As a worked illustration, we turn to IC50 data collected for GCN2 kinase (Homo sapiens (Human), UniProt Q9P2K8).

Recorded IC50, per entry:
compound: CNc1nc2nc(NC3CCCC3)ncc2cc1-c1cccc(NS(=O)(=O)c2cc(Cl)cnc2OC)c1F [Example 119]
observed-property: IC50
readout-value: ≤ 100 nM
//
compound: CNc1ncc2cc(-c3cccc(NS(=O)(=O)c4cccc(C(C)=O)c4Cl)c3F)c(NC)nc2n1 [Example 146]
observed-property: IC50
readout-value: 100 to 500 nM
//
compound: COc1ncc(Cl)cc1S(=O)(=O)Nc1cccc(-c2cc3cnc(N)cc3nc2C)c1F [Example 77]
observed-property: IC50
readout-value: ≤ 100 nM
//
compound: CNc1nc2nc(N)ncc2cc1-c1cccc(NS(=O)(=O)c2cc(Cl)cnc2OC)c1F [Example 109]
observed-property: IC50
readout-value: ≤ 100 nM
//
compound: CNc1cc2nc(NC)c(-c3cccc(NS(=O)(=O)c4cc(Cl)cnc4OC)c3Cl)cc2cn1 [Example 113]
observed-property: IC50
readout-value: 100 to 500 nM

Under GCN2 kinase (Homo sapiens (Human), UniProt Q9P2K8): IC50 value of CNc1cc2ncc(-c3cccc(NS(=O)(=O)c4cc(Cl)cc(CO)c4Cl)c3F)cc2cn1 [Example 4] ?
≤ 100 nM

Under GCN2 kinase (Homo sapiens (Human), UniProt Q9P2K8): IC50 value of CNc1ncc2cc(-c3cc(F)cc(NS(=O)(=O)c4cc(Cl)cnc4OC)c3)c(NCCOC)nc2n1 [Example 105] ?
100 to 500 nM

Under GCN2 kinase (Homo sapiens (Human), UniProt Q9P2K8): IC50 value of CNc1ncc2cc(-c3cccc(NS(=O)(=O)c4ccc(Br)c(C(F)(F)F)c4)c3F)ccc2n1 [Example 71] ?
1000 to 10000 nM

Under GCN2 kinase (Homo sapiens (Human), UniProt Q9P2K8): IC50 value of CNc1ncc2cc(-c3cccc(NS(=O)(=O)c4cc(OC)ccc4OC)c3F)c(NC)nc2n1 [Example 140] ?
100 to 500 nM

Under GCN2 kinase (Homo sapiens (Human), UniProt Q9P2K8): IC50 value of CNc1ncc2cc(-c3cccc(NS(=O)(=O)c4ccc(OC)c(C)c4)c3F)ccc2n1 [Example 91] ?
1000 to 10000 nM

---

As a worked illustration, we turn to IC50 data collected for UniProt:Q9NZJ5.

smiles-code: COc1ncc(Cl)cc1S(=O)(=O)Nc1cc(F)cc(-c2cc3cnc(Nc4cnn(C)c4)nc3nc2C)c1
observed-property: IC50
readout-value: ≤ 100 nM
//
smiles-code: CNc1ncc2cc(-c3cc(Cl)cc(NS(=O)(=O)c4cc(Cl)cnc4OC)c3)c(NC)nc2n1
observed-property: IC50
readout-value: 1000 to 10000 nM

Now let's try a different one.
Under UniProt:Q9NZJ5: IC50 value of `CNc1ncc2cc(-c3cc(NS(=O)(=O)c4cc(Cl)cnc4OC)c(F)cc3F)c(C)nc2n1` ?
1000 to 10000 nM

---

target: PERK kinase (Homo sapiens (Human)); assay: Biochemical assay for PERK (coupled pyruvate kinase/lactate dehydrogenase assay); conditions: 1 mM ATP, rate from 2-3 h time frame
pIC50: −log10 of the molar value.
observed-property: pIC50

Recorded pIC50, per entry:
compound: CNc1ncc2cc(-c3cccc(NS(=O)(=O)c4cc(Cl)cnc4OC)c3Cl)c(C)nc2n1 [Example 67]
pIC50: ≥ 7.00
--
compound: COc1cc2nc(N)ncc2cc1-c1cccc(NS(=O)(=O)c2cc(Cl)cc(CO)c2Cl)c1F [Example 167]
pIC50: ≥ 7.00
--
compound: CNc1ncc2cc(-c3cc(NS(=O)(=O)c4cc(Cl)cnc4OC)ccc3C(F)(F)F)ccc2n1 [Example 76]
pIC50: 5.00 to 6.00
--
compound: CNc1ncc2cc(-c3cccc(NS(=O)(=O)c4cc(C5CC5)cnc4OC)c3F)c(NC)nc2n1 [Example 153]
pIC50: 6.30 to 7.00

Using the record for CNc1ncc2cc(-c3cc(NS(=O)(=O)c4cncc(Cl)c4)c(F)cc3C)c(C)nc2n1 [Example 42] , report its pIC50.
5.00 to 6.00

Using the record for CNc1ncc2cc(-c3cc(NS(=O)(=O)c4cc(Cl)cnc4OC)ccc3C)c(NC)nc2n1 [Example 24] , report its pIC50.
6.30 to 7.00

Using the record for CNc1ncc2cc(-c3cccc(NS(=O)(=O)c4cc(Cl)cnc4OC)c3)c(C)nc2n1 [Example 47] , report its pIC50.
6.30 to 7.00

Using the record for CNc1cc2nc(C)c(-c3cc(NS(=O)(=O)c4cc(Cl)cnc4OC)cc(F)c3F)cc2cn1 [Example 143] , report its pIC50.
≥ 7.00

Attribution: patent US11912668B2
